- assay_system: Histamine H1 receptor (Homo sapiens, UniProt P35367)
- Sequence (P35367 whole entry): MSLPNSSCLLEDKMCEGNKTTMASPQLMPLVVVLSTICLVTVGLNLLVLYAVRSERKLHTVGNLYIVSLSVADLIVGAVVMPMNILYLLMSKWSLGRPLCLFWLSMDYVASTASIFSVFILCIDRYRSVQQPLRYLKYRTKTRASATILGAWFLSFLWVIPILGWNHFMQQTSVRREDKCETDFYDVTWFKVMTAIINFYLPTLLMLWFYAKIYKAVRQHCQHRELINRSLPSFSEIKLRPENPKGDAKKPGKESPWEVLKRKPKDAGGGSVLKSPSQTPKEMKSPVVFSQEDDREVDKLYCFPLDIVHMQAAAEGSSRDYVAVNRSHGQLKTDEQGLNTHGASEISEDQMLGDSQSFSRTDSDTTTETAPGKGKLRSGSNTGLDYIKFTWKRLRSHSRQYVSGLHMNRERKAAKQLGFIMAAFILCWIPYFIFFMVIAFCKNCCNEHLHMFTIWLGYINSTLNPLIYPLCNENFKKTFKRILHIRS
measured_parameter: pIC50
Recall that pIC50 is obtained by taking minus log10 of the concentration measured in molar.

These recorded examples may help you get a feel for the data.
structure_smiles | pIC50
CN(C)c1nc(N[C@H]2CC[C@@H](NC(=O)c3ccc(F)c(F)c3)CC2)nc2ccccc12 | 6.82
Cc1cc(N(C)C)nc(N[C@H]2CC[C@@H](NC(=O)c3ccc(Cl)cc3)CC2)n1 | 6.10
Cc1cc(N(C)C)nc(N[C@H]2CC[C@@H](NC(=O)c3cc(C(F)(F)F)cc(C(F)(F)F)c3)CC2)n1 | 5.92

Provide pIC50, recorded with Histamine H1 receptor (Homo sapiens, UniProt P35367), of Cc1cc(N(C)C)nc(N[C@H]2CC[C@@H](NC(=O)c3ccc(Cl)c(Cl)c3)CC2)n1
6.41

Provide pIC50, recorded with Histamine H1 receptor (Homo sapiens, UniProt P35367), of Cc1cnc(N[C@H]2CC[C@@H](NC(=O)c3ccc(F)cc3)CC2)nc1N(C)C
6.09
